Tested on: 521955-158-R2-J5-PDC complex spheroid viability
Experiment: Anticancer human tumor 521955-158-R2-J5-PDC patient-derived pancreatic carcinoma cell line growth inhibition [GQUAD]
Conditions: curve of first compound; second compound 0.1 µM
parameter: IC50 (µM)
# value in µM; strip the unit string

Examples from the recorded data:
[ask] Report IC50 for C#Cc1c(F)ccc2cc(O)cc(-c3ncc4c(N5CC6CCC(C5)N6)nc(OCC56CCCN5CC(F)C6)nc4c3F)c12 (configuration not stated) + CN(C)c1ccc(Nc2c3ccc(NC(=O)CCN4CCCC4)cc3nc3cc(NC(=O)CCN4CCCC4)ccc23)cc1 please.
[reply] 1.85

[ask] How about Cc1[nH]c2ccccc2c1CCNCc1ccc(/C=C/C(=O)NO)cc1 + CN(C)c1ccc(Nc2c3ccc(NC(=O)CCN4CCCC4)cc3nc3cc(NC(=O)CCN4CCCC4)ccc23)cc1 ?
[reply] 0.117

We next turn to a different compound, shown below.
[ask] Report IC50 for CC(C)(O)C1CCC(Nc2ccc3ncc(-c4cccc(C(F)(F)F)c4)n3n2)CC1 (configuration not stated) + CN(C)c1ccc(Nc2c3ccc(NC(=O)CCN4CCCC4)cc3nc3cc(NC(=O)CCN4CCCC4)ccc23)cc1 please.
[reply] 2.01

* * *

Tested on: 521955-158-R2-J5-PDC complex spheroid viability
Test: Anticancer human tumor 521955-158-R2-J5-PDC cell line growth inhibition [GQUAD];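 further: spheroids exposed to agents for one week before reading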;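 on viability, T/C: 100% = DMSO vehicle control viability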
Conditions: second compound 3.16 µM; first compound 10 µM; stronger effect = lower value
Description: DNA G-quadruplex Stabilizer Agents in Combinations in Complex Spheroids A high-throughput screen of multi-cell type tumor spheroids was designed to identify active combinations of DNA G-quadruplex stabilizer agents and targeted small molecules. […] Compounds. […] If the clinical Cmax for an agent had not been determined, the highest concentration tested was 10 microM. […]
Decide using viability, T/C alone. Strictly below 20%: t. Equal to or above 20%: f.

Below, 4 molecules whose answers are already recorded.
[ask] is_below(viability, T/C, 20%) for O=C(c1cc(Cc2n[nH]c(=O)c3ccccc23)ccc1F)N1CCN(C(=O)C2CC2)CC1 + Cc1cnc(CNC(=O)c2c(=O)c3ccc(N4CCCN(C)CC4)nc3n3c2sc2ccccc23)cn1 ?
[reply] t

[ask] How about C=CCn1c(=O)c2cnc(Nc3ccc(N4CCN(C)CC4)cc3)nc2n1-c1cccc(C(C)(C)O)n1 + Cc1cnc(CNC(=O)c2c(=O)c3ccc(N4CCCN(C)CC4)nc3n3c2sc2ccccc23)cn1 ?
[reply] t

[ask] How about CC1COCCN1c1cc(C2(O)CC3CCC(C2)O3)c2cnn(-c3ccn[nH]3)c2n1 (stereo not drawn) + CN(C)c1ccc(Nc2c3ccc(NC(=O)CCN4CCCC4)cc3nc3cc(NC(=O)CCN4CCCC4)ccc23)cc1 ?
[reply] t

[ask] How about O=C(c1cc(Cc2n[nH]c(=O)c3ccccc23)ccc1F)N1CCN(C(=O)C2CC2)CC1 + Cc1[nH]c2ccc(F)cc2c1-c1nc2c3cccnc3c3ncccc3c2[nH]1 ?
[reply] f

---
[ask] is_below(viability, T/C, 20%) for CCCS(=O)(=O)Nc1ccc(F)c(C(=O)c2c[nH]c3ncc(-c4ccc(Cl)cc4)cc23)c1F + Cc1[nH]c2ccc(F)cc2c1-c1nc2c3cccnc3c3ncccc3c2[nH]1 ?
[reply] f

[ask] How about Nc1ccn(C2OC(CO)C(O)C2(F)F)c(=O)n1 (stereo not drawn) + Cc1[nH]c2ccc(F)cc2c1-c1nc2c3cccnc3c3ncccc3c2[nH]1 ?
[reply] t

[ask] How about Cc1cccc(N(C)C(=O)C2C(O)CCN2c2nc(C)cc(C(F)(F)F)c2C#N)c1 (stereo not drawn) + Cc1[nH]c2ccc(F)cc2c1-c1nc2c3cccnc3c3ncccc3c2[nH]1 ?
[reply] f

[ask] How about CC1COCCN1c1cc(-c2ccnn2C)c2ccnc(-c3ccn[nH]3)c2n1 (stereo not drawn) + Cc1[nH]c2ccc(F)cc2c1-c1nc2c3cccnc3c3ncccc3c2[nH]1 ?
[reply] f

[ask] How about CC(=O)O[C@H]1C(=O)[C@@]2(C)[C@H]([C@H](OC(=O)c3ccccc3)[C@]3(O)C[C@H](OC(=O)[C@H](O)[C@@H](NC(=O)c4ccccc4)c4ccccc4)C(C)=C1C3(C)C)[C@]1(OC(C)=O)CO[C@@H]1C[C@@H]2O + Cc1[nH]c2ccc(F)cc2c1-c1nc2c3cccnc3c3ncccc3c2[nH]1 ?
[reply] f

[ask] How about CCCS(=O)(=O)Nc1ccc(F)c(C(=O)c2c[nH]c3ncc(-c4ccc(Cl)cc4)cc23)c1F + CN(C)c1ccc(Nc2c3ccc(NC(=O)CCN4CCCC4)cc3nc3cc(NC(=O)CCN4CCCC4)ccc23)cc1 ?
[reply] f

[ask] How about CC(C)n1c(=O)n(C)c2cnc3cc(F)c(-c4ccc(OCCCN5CCCCC5)nc4)cc3c21 + CN(C)c1ccc(Nc2c3ccc(NC(=O)CCN4CCCC4)cc3nc3cc(NC(=O)CCN4CCCC4)ccc23)cc1 ?
[reply] f

* * *

Test system: 521955-158-R2-J5-PDC complex spheroid viability
Assay: Anticancer human tumor 521955-158-R2-J5-PDC cell line growth inhibition [GQUAD];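 further: spheroids exposed to agents for one week before reading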;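 on viability, T/C: 100% = DMSO vehicle control viability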
Conditions: second compound 3.16 µM; first compound 0.316 µM; stronger effect = lower value
Below, each of the compounds is paired with its reported viability, T/C value.
# value in %; strip the unit string

Examples from the recorded data:
[ask] API: value(readout= viability, T/C, system= 521955-158-R2-J5-PDC complex spheroid viability, query= C=CC(=O)N1CCN(c2nc(=O)n(-c3c(C)ccnc3C(C)C)c3nc(-c4c(O)cccc4F)c(F)cc23)C(C)C1 (stereo unspecified) + Cc1cnc(CNC(=O)c2c(=O)c3ccc(N4CCCN(C)CC4)nc3n3c2sc2ccccc23)cn1 )
[reply] 19.9

[ask] How about COc1cc(C2c3cc4c(cc3C(OC3OC5COC(C)OC5C(O)C3O)C3COC(=O)C23)OCO4)cc(OC)c1O (stereo unspecified) + Cc1[nH]c2ccc(F)cc2c1-c1nc2c3cccnc3c3ncccc3c2[nH]1 ?
[reply] 73.1

[ask] How about Nc1ccn(C2OC(CO)C(O)C2(F)F)c(=O)n1 (stereo unspecified) + Cc1[nH]c2ccc(F)cc2c1-c1nc2c3cccnc3c3ncccc3c2[nH]1 ?
[reply] 66.4

[ask] How about CC1COCCN1c1cc(C2(O)CC3CCC(C2)O3)c2cnn(-c3ccn[nH]3)c2n1 (stereo unspecified) + Cc1cnc(CNC(=O)c2c(=O)c3ccc(N4CCCN(C)CC4)nc3n3c2sc2ccccc23)cn1 ?
[reply] 10.7

[ask] How about COc1ccc([C@@H](O)c2cc(-c3ncnc4cc(N5CCOCC5)ccc34)c(F)cc2Cl)nn1 + CN(C)c1ccc(Nc2c3ccc(NC(=O)CCN4CCCC4)cc3nc3cc(NC(=O)CCN4CCCC4)ccc23)cc1 ?
[reply] 74.9

We next turn to a different compound, shown below.
[ask] API: value(readout= viability, T/C, system= 521955-158-R2-J5-PDC complex spheroid viability, query= O=c1[nH]cc(F)c(=O)[nH]1 + Cc1[nH]c2ccc(F)cc2c1-c1nc2c3cccnc3c3ncccc3c2[nH]1 )
[reply] 107

* * *

Test system: 521955-158-R2-J5-PDC complex spheroid viability
Assay: Anticancer human tumor 521955-158-R2-J5-PDC cell line growth inhibition [GQUAD];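 further: spheroids exposed to agents for one week before reading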
Conditions: curve of first compound; second compound 0.1 µM
Below, each of the compounds is paired with its reported IC50 value.

[ask] API: value(readout= IC50, system= 521955-158-R2-J5-PDC complex spheroid viability, query= COc1ncnc(C2CC2)c1-c1ncc2cnn(Cc3ccc(-c4nc(C(F)(F)F)cn4C(C)C)cc3)c2n1 + Cc1[nH]c2ccc(F)cc2c1-c1nc2c3cccnc3c3ncccc3c2[nH]1 )
[reply] > 10 µM

[ask] How about C=CC(=O)N1CCN(c2nc(=O)n(-c3c(C)ccnc3C(C)C)c3nc(-c4c(O)cccc4F)c(F)cc23)C(C)C1 (centres undefined) + Cc1cnc(CNC(=O)c2c(=O)c3ccc(N4CCCN(C)CC4)nc3n3c2sc2ccccc23)cn1 ?
[reply] > 10 µM

---
[ask] API: value(readout= IC50, system= 521955-158-R2-J5-PDC complex spheroid viability, query= C=CC(=O)N1CCN(c2nc(=O)n(-c3c(C)ccnc3C(C)C)c3nc(-c4c(O)cccc4F)c(F)cc23)C(C)C1 (centres undefined) + Cc1[nH]c2ccc(F)cc2c1-c1nc2c3cccnc3c3ncccc3c2[nH]1 )
[reply] > 10 µM

[ask] How about CC1COCCN1c1cc(C2(O)CC3CCC(C2)O3)c2cnn(-c3ccn[nH]3)c2n1 (centres undefined) + Cc1[nH]c2ccc(F)cc2c1-c1nc2c3cccnc3c3ncccc3c2[nH]1 ?
[reply] < 0.0316 µM

* * *

System: 521955-158-R2-J5-PDC complex spheroid viability
Assay: Anticancer human tumor 521955-158-R2-J5-PDC cell line growth inhibition [GQUAD];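 further: spheroids exposed to agents for one week before reading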
Conditions: curve of first compound; second compound 0.1 µM
pIC50: −log10 of the molar value.
parameter: pIC50

Examples from the recorded data:
[ask] Report pIC50 for CC1COCCN1c1cc(-c2ccnn2C)c2ccnc(-c3ccn[nH]3)c2n1 (centres undefined) + Cc1cnc(CNC(=O)c2c(=O)c3ccc(N4CCCN(C)CC4)nc3n3c2sc2ccccc23)cn1 please.
[reply] > 7.50

[ask] How about CCCS(=O)(=O)Nc1ccc(F)c(C(=O)c2c[nH]c3ncc(-c4ccc(Cl)cc4)cc23)c1F + Cc1cnc(CNC(=O)c2c(=O)c3ccc(N4CCCN(C)CC4)nc3n3c2sc2ccccc23)cn1 ?
[reply] < 5.00

[ask] How about Cc1cccc(N(C)C(=O)C2C(O)CCN2c2nc(C)cc(C(F)(F)F)c2C#N)c1 (centres undefined) + CN(C)c1ccc(Nc2c3ccc(NC(=O)CCN4CCCC4)cc3nc3cc(NC(=O)CCN4CCCC4)ccc23)cc1 ?
[reply] < 5.00

---
[ask] Report pIC50 for CC1COCCN1c1cc(C2(O)CC3CCC(C2)O3)c2cnn(-c3ccn[nH]3)c2n1 (centres undefined) + Cc1cnc(CNC(=O)c2c(=O)c3ccc(N4CCCN(C)CC4)nc3n3c2sc2ccccc23)cn1 please.
[reply] > 7.50
